// provenance: patent US11642336B2

pKi: −log10 of the molar value.
MEASUREMENT_KIND: pKi

# input Kindly state the measured pKi obtained for CN(C)CCc1c[nH]c2cccc(O)c12 [Psilocin, psilocin] with D4 (Homo sapiens (Human), UniProt P21917).
# Sequence (P21917 whole entry, looked up): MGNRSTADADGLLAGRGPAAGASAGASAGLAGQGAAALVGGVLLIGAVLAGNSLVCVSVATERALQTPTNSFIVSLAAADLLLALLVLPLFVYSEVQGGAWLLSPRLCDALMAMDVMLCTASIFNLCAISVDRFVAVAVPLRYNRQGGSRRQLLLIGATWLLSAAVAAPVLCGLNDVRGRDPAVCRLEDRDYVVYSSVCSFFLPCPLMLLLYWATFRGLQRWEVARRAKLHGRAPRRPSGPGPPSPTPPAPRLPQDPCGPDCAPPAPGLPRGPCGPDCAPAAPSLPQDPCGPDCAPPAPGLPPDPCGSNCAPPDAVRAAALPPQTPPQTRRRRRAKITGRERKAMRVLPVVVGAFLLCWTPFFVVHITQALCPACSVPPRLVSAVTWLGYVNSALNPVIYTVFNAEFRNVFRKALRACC
# output < 5.00

----------
Assign Ki to each entry below.
Biological target: 5-HT1A (Homo sapiens (Human))
Test: radioligand competition binding assay (Psychiatric Drug Screening Program)
Numeric answer only, unit nM assumed.

# input Tell me the measured Ki of COc1cc(C(F)(F)F)c(OC)cc1[C@@H]1CCCNC1.Cl [Compound 8, hydrochloride] , please.
# output 330

# input Tell me the measured Ki of CN(C)CCc1c[nH]c2cccc(O)c12 , please.
# output 63
